- Protocol details: Pharmacokinetic evaluation in rats
- Assay type: in vivo, Sprague-Dawley rats
- Condition label: male, Sprague-Dawley, plasma; rat, PO, 10 mg/kg single dose
Quantity kind: AUC(0-inf) (µg·h/mL)

[2H]c1cccc(Oc2ccc3c(O)c(C(=O)NC([2H])([2H])C(=O)O)nc(C)c3c2)c1; 222
[2H]c1c([2H])c([2H])c(Oc2ccc3c(O)c(C(=O)NCC(=O)O)nc(C)c3c2)c([2H])c1[2H]; 185
[2H]C([2H])(NC(=O)c1nc(C)c2cc(Oc3ccccc3)ccc2c1O)C(=O)O; 261
Cc1nc(C(=O)NCC(=O)O)c(O)c2ccc(Oc3ccccc3)cc12 [FG-4592, reference compound]; 196
